Reported T/C values for a set of compounds
System: L1210 leukemia ip in BDF1 mice, survival T/C
Assay: NCI In Vivo Anticancer Drug Screen. Data for tumor model L1210 Leukemia (intraperitoneal) in B6D2F1 (BDF1) mice
Conditions: endpoint: mean survival time; dose: 200.0 mg/kg/injection; schedule: Q04DX003 (ip); vehicle: Klucel (hydroxypropylcellulose) (HPC); higher = longer survival
Toxic doses and inconclusive results are not listed.
reportedProperty: T/C

* COc1ccc2c(c1)CCC1C2CCC2(C)C1CCC21CCNP(=O)(N(CCCl)CCCl)O1 (stereo unspecified) | 103 % of control
* O=S(=O)(O)c1ccc2c(N=Nc3ccc(S(=O)(=O)N(CCCl)CCCl)cc3)c(O)c(S(=O)(=O)O)cc2c1 | 93 % of control
* CCc1c(N)nc(=O)[nH]c1C(=O)O | 100 % of control
* Cc1ccc(C2(C(=O)O)CCCCC2)cc1 | 98 % of control
* c1ccc(C(N2CCCCC2)N2CCCCC2)cc1 | 103 % of control
* O=C(NCCCl)Oc1cccc2c1CCCC2 | 100 % of control
* CCCCNC(=O)Nc1cccc(C)c1C | 93 % of control
* Cc1ccc(S(=O)(=O)NC(CSSCC(NS(=O)(=O)c2ccc(C)cc2)C(=O)OC(C)(C)C)C(=O)OC(C)(C)C)cc1 (stereo unspecified) | 101 % of control
* Nc1nc(=O)n(CCCSc2ccc([N+](=O)[O-])cc2)cc1-c1ccc(Cl)c(Cl)c1 | 90 % of control
* CC(=O)OCC1OC(OC(C)=O)C(NC(=O)N(C)C)C(OC(C)=O)C1OC(C)=O (stereo unspecified) | 103 % of control
* CCc1ccc2c(c1)Nc1ccccc1S2 | 97 % of control
